The measured values listed here are drawn from paper PMC7961094.

target: glutamate dehydrogenase (GDH); assay: 2,4-DNPH oxidative deamination assay with GDH; type: biochemical, thermophilic bacterium species; conditions: 5 mM L-glutamate, 2.5 mM NAD^+, 0.25 μM GDH; brackets 95% confidence interval; listed as 2-Methyleneglutarate (2-MG)
Measured property: IC50 (µM)

> print(dat)
                                   compound  recorded.value
1  C=C(CCC(=O)O)C(=O)O [2-MG, 2-methyleneglutaric acid, reference compound]            24.9

====

target: PHD3 (Homo sapiens, UniProt Q9H6Z9); assay: 2,4-DNPH α-KG assay with PHD3
Sequence (Q9H6Z9 whole entry): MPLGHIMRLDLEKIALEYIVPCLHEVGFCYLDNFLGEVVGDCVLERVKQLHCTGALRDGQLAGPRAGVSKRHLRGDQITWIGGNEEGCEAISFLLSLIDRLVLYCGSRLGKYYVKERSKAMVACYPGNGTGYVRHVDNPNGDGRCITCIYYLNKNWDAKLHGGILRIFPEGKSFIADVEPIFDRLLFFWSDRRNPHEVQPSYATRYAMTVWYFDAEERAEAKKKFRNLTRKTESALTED
Measured property: IC50 (µM)

> print(dat)
      substance.smiles                   measurement.target  recorded.value
1  O=C(O)CNC(=O)C(=O)O  PHD3 (Homo sapiens, UniProt Q9H6Z9)            51.3
